# target: 5HT7 receptor (Homo sapiens, UniProt P34969)
# Sequence (P34969 whole entry): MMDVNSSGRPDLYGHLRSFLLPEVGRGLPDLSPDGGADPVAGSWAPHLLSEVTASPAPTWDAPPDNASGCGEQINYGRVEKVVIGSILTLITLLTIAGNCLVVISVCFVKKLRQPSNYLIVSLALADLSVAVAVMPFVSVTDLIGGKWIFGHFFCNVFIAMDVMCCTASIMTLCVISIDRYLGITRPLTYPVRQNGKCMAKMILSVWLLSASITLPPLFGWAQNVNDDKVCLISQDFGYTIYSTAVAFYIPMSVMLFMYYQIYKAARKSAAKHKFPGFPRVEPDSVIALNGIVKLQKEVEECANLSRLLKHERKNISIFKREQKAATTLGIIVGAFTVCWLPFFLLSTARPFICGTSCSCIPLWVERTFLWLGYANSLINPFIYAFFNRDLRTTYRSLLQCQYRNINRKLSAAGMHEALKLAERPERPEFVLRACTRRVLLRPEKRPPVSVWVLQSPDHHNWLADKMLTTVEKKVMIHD
# procedure_details: Competitive receptor binding, 5HT7 (radiolabeled LSD)
# test_settings: 100 nM, read-out: Percent inhibition of receptor binding at 100 nM, 5HT7 Receptor Binding
measured_property: inhibition at 0.1 µM (%)

>  <smiles_str>
Clc1cccc(N2CCN(CCCSc3nnnn3-c3ccccc3)CC2)c1

>  <measured_property>
inhibition at 0.1 µM

>  <unit_spec>
%

>  <meas_value>
43

$$$$
>  <smiles_str>
c1ccc(-n2nnnc2SCCCN2CCN(c3nccc4occc34)CC2)cc1

>  <measured_property>
inhibition at 0.1 µM

>  <unit_spec>
%

>  <meas_value>
67

$$$$
>  <smiles_str>
FC(F)(F)c1cccc(N2CCN(CCSc3nnc(-c4ccncc4)o3)CC2)c1

>  <measured_property>
inhibition at 0.1 µM

>  <unit_spec>
%

>  <meas_value>
25

$$$$
>  <smiles_str>
Cn1ccnc1SCCCN1CCN(c2nccc3occc23)CC1

>  <measured_property>
inhibition at 0.1 µM

>  <unit_spec>
%

>  <meas_value>
81

$$$$

1. Cn1ccnc1SCCN1CCN(c2cccc(C(F)(F)F)c2)CC1
2. Clc1cccc(N2CCN(CCCSc3nnc(-c4ccncc4)o3)CC2)c1
I'd appreciate it if you could identify which of 1 and 2 has the greater inhibition at 0.1 µM. Pick one; state its label.
1
(1: 63%, 2: 8%)

* * *

# target: UniProt:P08908
# Sequence (P08908 whole entry): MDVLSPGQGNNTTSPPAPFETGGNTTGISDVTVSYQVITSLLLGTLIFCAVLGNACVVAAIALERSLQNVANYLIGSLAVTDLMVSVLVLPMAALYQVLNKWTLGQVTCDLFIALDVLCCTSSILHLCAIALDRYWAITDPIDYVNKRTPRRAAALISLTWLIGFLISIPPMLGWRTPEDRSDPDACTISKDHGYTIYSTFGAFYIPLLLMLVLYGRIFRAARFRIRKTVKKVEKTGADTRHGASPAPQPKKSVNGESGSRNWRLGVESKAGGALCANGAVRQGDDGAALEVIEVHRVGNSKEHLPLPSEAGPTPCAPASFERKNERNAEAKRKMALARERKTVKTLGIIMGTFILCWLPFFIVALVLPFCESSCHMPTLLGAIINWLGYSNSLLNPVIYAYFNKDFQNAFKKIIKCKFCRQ
# procedure_details: Competitive receptor binding, 5HT1A (radiolabeled OH-DPAT)
# test_settings: 100 nM, read-out: Percent inhibition of receptor binding at 100 nM, 5HT1A Receptor Binding
measured_property: inhibition at 0.1 µM (%)

>  <smiles_str>
Cn1ccnc1SCCN1CCN(c2cccc(C(F)(F)F)c2)CC1

>  <unit_spec>
%

>  <meas_value>
87

$$$$
>  <smiles_str>
Clc1cccc(N2CCN(CCCSc3nnc(-c4ccncc4)o3)CC2)c1

>  <unit_spec>
%

>  <meas_value>
97

$$$$
>  <smiles_str>
c1ccc(-n2nnnc2SCCCN2CCN(c3nccc4occc34)CC2)cc1

>  <unit_spec>
%

>  <meas_value>
97

$$$$
>  <smiles_str>
FC(F)(F)c1cccc(N2CCN(CCSc3nnc(-c4ccncc4)o3)CC2)c1

>  <unit_spec>
%

>  <meas_value>
92

$$$$
>  <smiles_str>
Clc1cccc(N2CCN(CCCSc3nnnn3-c3ccccc3)CC2)c1

>  <unit_spec>
%

>  <meas_value>
75

$$$$
>  <smiles_str>
Cn1ccnc1SCCCN1CCN(c2nccc3occc23)CC1

>  <unit_spec>
%

>  <meas_value>
71

$$$$
>  <smiles_str>
Cn1ccnc1SCCCN1CCN(c2cccc(Cl)c2)CC1

>  <unit_spec>
%

>  <meas_value>
94

$$$$

* * *

# target: 5HT1D receptor (Homo sapiens, UniProt P28221)
# Sequence (P28221 whole entry): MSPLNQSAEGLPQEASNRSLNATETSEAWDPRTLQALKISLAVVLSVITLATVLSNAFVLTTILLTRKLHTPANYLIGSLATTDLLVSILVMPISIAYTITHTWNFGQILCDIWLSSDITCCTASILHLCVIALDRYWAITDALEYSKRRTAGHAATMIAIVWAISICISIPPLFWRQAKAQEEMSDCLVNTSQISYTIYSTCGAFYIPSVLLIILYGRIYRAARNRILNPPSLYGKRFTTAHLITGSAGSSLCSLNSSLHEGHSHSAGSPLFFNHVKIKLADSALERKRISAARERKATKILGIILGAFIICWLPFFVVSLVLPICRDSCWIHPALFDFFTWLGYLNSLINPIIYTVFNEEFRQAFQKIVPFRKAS
# procedure_details: Competitive receptor binding, 5HT1D (radiolabeled serotonin)
# test_settings: 100 nM, read-out: Percent inhibition of receptor binding at 100 nM, 5HT1D Receptor Binding
measured_property: inhibition at 0.1 µM (%)

Examples from the recorded data:
>  <smiles_str>
c1ccc(-n2nnnc2SCCCN2CCN(c3nccc4occc34)CC2)cc1

>  <unit_spec>
%

>  <inhibition at 0.1 µM>
38

$$$$
>  <smiles_str>
Clc1cccc(N2CCN(CCCSc3nnc(-c4ccncc4)o3)CC2)c1

>  <unit_spec>
%

>  <inhibition at 0.1 µM>
51

$$$$

A. Cn1ccnc1SCCCN1CCN(c2cccc(Cl)c2)CC1
B. Clc1cccc(N2CCN(CCCSc3nnnn3-c3ccccc3)CC2)c1
C. FC(F)(F)c1cccc(N2CCN(CCSc3nnc(-c4ccncc4)o3)CC2)c1
Kindly order the items shown according to inhibition at 0.1 µM, from the highest value down. Put the labels in the requested order and write them down.
A, C, B
